measured.on: hMAO-A (Homo sapiens)
Sequence (P21397 1-527): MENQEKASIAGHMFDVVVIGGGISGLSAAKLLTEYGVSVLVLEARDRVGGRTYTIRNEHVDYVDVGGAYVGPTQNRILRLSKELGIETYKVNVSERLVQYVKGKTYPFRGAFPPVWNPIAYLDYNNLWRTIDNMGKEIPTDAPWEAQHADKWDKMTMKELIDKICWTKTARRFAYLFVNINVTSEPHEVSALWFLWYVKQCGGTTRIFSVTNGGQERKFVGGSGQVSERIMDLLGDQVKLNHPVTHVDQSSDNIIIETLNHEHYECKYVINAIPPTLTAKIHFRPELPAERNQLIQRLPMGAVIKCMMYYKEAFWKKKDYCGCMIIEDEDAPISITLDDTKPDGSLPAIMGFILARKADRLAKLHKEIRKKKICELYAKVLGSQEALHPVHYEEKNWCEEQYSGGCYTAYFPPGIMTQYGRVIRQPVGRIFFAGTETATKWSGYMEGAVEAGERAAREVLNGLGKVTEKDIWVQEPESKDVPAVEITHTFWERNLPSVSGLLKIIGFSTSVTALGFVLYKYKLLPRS
protocol: biochemical
test.readout: Ki (nM)

- compound: "Cc1c(O)c(O)cc2oc(=O)c3c(O)cc(O)cc3c12 [HAT, 5′-hydroxy-alternariol]"
  numeric.result: 116
- compound: "Cc1cc(O)cc2oc(=O)c3c(O)cc(O)cc3c12 [AT, alternariol]"
  numeric.result: 7.5

* * *

measured.on: UniProt P27338
Sequence (P27338 whole entry): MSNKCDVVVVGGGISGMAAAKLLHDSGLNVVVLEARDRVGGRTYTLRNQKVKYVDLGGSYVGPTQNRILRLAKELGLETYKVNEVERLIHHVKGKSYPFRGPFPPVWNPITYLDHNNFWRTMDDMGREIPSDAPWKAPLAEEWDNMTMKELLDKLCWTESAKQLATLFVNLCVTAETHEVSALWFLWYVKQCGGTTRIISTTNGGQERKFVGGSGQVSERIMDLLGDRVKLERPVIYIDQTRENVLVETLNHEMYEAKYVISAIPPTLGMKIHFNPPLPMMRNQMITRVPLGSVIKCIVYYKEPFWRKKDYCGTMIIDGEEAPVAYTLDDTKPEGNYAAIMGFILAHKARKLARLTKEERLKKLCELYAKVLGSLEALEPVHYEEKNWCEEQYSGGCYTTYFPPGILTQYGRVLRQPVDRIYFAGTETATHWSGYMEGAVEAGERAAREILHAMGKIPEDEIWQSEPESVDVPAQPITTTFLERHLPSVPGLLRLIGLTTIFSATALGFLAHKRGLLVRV
protocol: biochemical
pIC50: −log10 of the molar value.

- compound: "Cc1c(O)c(O)cc2oc(=O)c3c(O)cc(O)cc3c12 [HAT, 5′-hydroxy-alternariol]"
  measured.on: "UniProt P27338"
  limit.sign: "<"
  pIC50: 4.40
- compound: "Cc1cc(O)cc2oc(=O)c3c(O)cc(O)cc3c12"
  measured.on: "UniProt P27338"
  limit.sign: "="
  pIC50: 4.68

* * *

measured.on: AChE (Electrophorus electricus, UniProt O42275)
Construct: AChE from electric eel and BChE from horse serum were used; from tissue; host or cells: electric eel
Sequence (O42275 24-633): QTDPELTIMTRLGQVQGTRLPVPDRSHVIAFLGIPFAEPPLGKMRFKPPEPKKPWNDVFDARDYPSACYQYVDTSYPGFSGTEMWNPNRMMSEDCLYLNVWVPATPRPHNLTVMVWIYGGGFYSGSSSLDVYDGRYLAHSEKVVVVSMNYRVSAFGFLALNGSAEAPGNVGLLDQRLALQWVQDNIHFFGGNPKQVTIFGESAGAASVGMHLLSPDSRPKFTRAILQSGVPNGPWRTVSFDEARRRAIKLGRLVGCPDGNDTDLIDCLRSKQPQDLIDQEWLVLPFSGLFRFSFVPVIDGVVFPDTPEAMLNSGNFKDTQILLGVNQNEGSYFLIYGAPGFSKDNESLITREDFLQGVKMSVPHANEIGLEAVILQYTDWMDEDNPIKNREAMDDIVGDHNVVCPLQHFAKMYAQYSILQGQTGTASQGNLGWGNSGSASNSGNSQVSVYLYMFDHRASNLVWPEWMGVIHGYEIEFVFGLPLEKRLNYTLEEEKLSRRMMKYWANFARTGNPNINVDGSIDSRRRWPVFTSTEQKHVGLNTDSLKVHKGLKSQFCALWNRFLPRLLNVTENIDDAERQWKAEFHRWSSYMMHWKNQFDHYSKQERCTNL
protocol: biochemical
Set-up: species or system electric eel
pIC50: −log10 of the molar value.
test.readout: pIC50

- compound: "Cc1cc(O)cc2oc(=O)c3c(O)cc(O)cc3c12 [AT, alternariol]"
  test.readout: "pIC50"
  numeric.result: 5.00
- compound: "Cc1c(O)c(O)cc2oc(=O)c3c(O)cc(O)cc3c12 [HAT, 5′-hydroxy-alternariol]"
  test.readout: "pIC50"
  numeric.result: 4.70

* * *

measured.on: UniProt:P56817
Sequence (P56817 46-501): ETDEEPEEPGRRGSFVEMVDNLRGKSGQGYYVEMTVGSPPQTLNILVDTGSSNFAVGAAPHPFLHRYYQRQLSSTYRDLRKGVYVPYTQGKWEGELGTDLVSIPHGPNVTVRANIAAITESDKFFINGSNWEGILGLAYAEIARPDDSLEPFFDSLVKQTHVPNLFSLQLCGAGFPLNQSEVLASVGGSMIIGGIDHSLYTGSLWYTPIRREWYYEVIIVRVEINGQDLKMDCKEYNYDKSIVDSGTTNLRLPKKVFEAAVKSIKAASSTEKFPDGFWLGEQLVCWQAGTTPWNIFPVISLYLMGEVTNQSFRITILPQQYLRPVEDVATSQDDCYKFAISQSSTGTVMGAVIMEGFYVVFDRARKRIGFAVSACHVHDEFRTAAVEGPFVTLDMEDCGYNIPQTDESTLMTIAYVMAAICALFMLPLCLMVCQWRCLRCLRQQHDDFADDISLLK
pIC50: −log10 of the molar value.
We begin with a simple list: items and their reported pIC50.

- compound: "CC(=O)O[C@H]1C=CC(=O)O[C@H]1[C@@H]1[C@H](C)[C@H]2C=CC=C[C@@H]1O2"
  measured.on: "UniProt:P56817"
  pIC50: 4.44
- compound: "Cc1cc(O)cc2oc(=O)c3c(O)cc(O)cc3c12"
  measured.on: "UniProt:P56817"
  pIC50: 4.44
- compound: "Cc1c(O)c(O)cc2oc(=O)c3c(O)cc(O)cc3c12 [HAT, 5′-hydroxy-alternariol]"
  measured.on: "UniProt:P56817"
  pIC50: 4.61

Reference source for all entries: paper PMC8541017
